- System: biotinyl-Met-oxazolone
- assay summary: self-aminoacylation, catalytic enhancement (BMO) (fold over background); higher = more active; k-Seq, kA / k0A0; sequences stand for … in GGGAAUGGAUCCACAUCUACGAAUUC…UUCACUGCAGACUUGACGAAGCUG
Fewer inactive variants are shown than the library holds.
Label rule, in plain words: self-aminoacylation of 3 and up is T, under 3 is F.

{"primary sequence": "CUACUUCAAACAACCUGUCUG [Fam1A.1 aminoacylation ribozyme variant]", "assigned label": "F"}
{"primary sequence": "AUUACCCUGGUCAUCCAUUGA [Fam2.1 aminoacylation ribozyme variant]", "assigned label": "F"}
{"primary sequence": "CUACCUCAAACAAGCGGUCUG [Fam1A.1 aminoacylation ribozyme variant]", "assigned label": "F"}
{"primary sequence": "UUUCACCUAGGUCAUCGGGAG [Fam2.2 aminoacylation ribozyme variant]", "assigned label": "F"}
{"primary sequence": "AUUACCCUUGUCAUCCAGUGA [Fam2.1 aminoacylation ribozyme variant]", "assigned label": "T"}
{"primary sequence": "CUUCUUCAAACAAUCGGUCUC [Fam1A.1 aminoacylation ribozyme variant]", "assigned label": "F"}
{"primary sequence": "GAGUUUACUAAUAGUCGCAAG [Fam3.1 aminoacylation ribozyme variant]", "assigned label": "F"}
{"primary sequence": "AUUAAACUGGUCAUCGAGUGA [Fam2.1 aminoacylation ribozyme variant]", "assigned label": "T"}
{"primary sequence": "CCACACUUCGAGCAAUCGGUA [Fam1B.1 aminoacylation ribozyme variant]", "assigned label": "F"}
{"primary sequence": "ACUCACCUAGGUCAUCGCGUG [Fam2.2 aminoacylation ribozyme variant]", "assigned label": "T"}
{"primary sequence": "UUUACGCUGGUCAUCGAGUGA [Fam2.1 aminoacylation ribozyme variant]", "assigned label": "T"}
{"primary sequence": "CUUACCCUGGUCACCGAGUGA [Fam2.1 aminoacylation ribozyme variant]", "assigned label": "T"}
{"primary sequence": "AUUCACCUAUGUCACCGGGUG [Fam2.2 aminoacylation ribozyme variant]", "assigned label": "T"}
{"primary sequence": "AAGUUUGCUAGUAGUCGCAUG [Fam3.1 aminoacylation ribozyme variant]", "assigned label": "F"}
{"primary sequence": "AUUACCAUGGUCAUCGUGUGA [Fam2.1 aminoacylation ribozyme variant]", "assigned label": "T"}
{"primary sequence": "CCACACUUUAAGCAAUCGGCC [Fam1B.1 aminoacylation ribozyme variant]", "assigned label": "F"}
{"primary sequence": "AUUACCCUGGUUAGCGAGUGA [Fam2.1 aminoacylation ribozyme variant]", "assigned label": "T"}
{"primary sequence": "ACACACUUCAAGCAAUUGGUC [Fam1B.1 aminoacylation ribozyme variant]", "assigned label": "F"}

* * *

- Tested on: biotinyl-Ile-oxazolone
- assay summary: self-aminoacylation, catalytic enhancement (BIO) (fold over background); higher = more active; k-Seq, kA / k0A0; sequences stand for … in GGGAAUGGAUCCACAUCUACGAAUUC…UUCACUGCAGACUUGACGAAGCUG
Variants at the floor of the assay were thinned out.
measured property: self-aminoacylation

{"primary sequence": "AUUCACCUAUAUCAUCGGGUG [Fam2.2 aminoacylation ribozyme variant]", "test target": "biotinyl-Ile-oxazolone", "value reported": 2.84}
{"primary sequence": "CCACACUUCAAGCAAUCGGUU [Fam1B.1 aminoacylation ribozyme variant]", "test target": "biotinyl-Ile-oxazolone", "value reported": 1.35}
{"primary sequence": "AAGUUAGCUAAUAGUCGGAAG [Fam3.1 aminoacylation ribozyme variant]", "test target": "biotinyl-Ile-oxazolone", "value reported": 1.07}
{"primary sequence": "AUUACCCCGGUCAUAGAGUGA [Fam2.1 aminoacylation ribozyme variant]", "test target": "biotinyl-Ile-oxazolone", "value reported": 4.47}
{"primary sequence": "CCACUUCAGACAAUCGGUCUG [Fam1A.1 aminoacylation ribozyme variant]", "test target": "biotinyl-Ile-oxazolone", "value reported": 1.62}
{"primary sequence": "UCACAGUUCAAGCAAUCGGUC [Fam1B.1 aminoacylation ribozyme variant]", "test target": "biotinyl-Ile-oxazolone", "value reported": 1.05}
{"primary sequence": "AUUCCCCUAGGUCAUCGUGUG [Fam2.2 aminoacylation ribozyme variant]", "test target": "biotinyl-Ile-oxazolone", "value reported": 3.28}
{"primary sequence": "AUUCACCUCGGUCAUAGGGUG [Fam2.2 aminoacylation ribozyme variant]", "test target": "biotinyl-Ile-oxazolone", "value reported": 1.11}
{"primary sequence": "AUUCACCUAGCUCAACGGGUG [Fam2.2 aminoacylation ribozyme variant]", "test target": "biotinyl-Ile-oxazolone", "value reported": 1.37}

Sourced from the supplement of paper PMC9233669
